- system under test: UniProt:Q09013
- Sequence (Q09013 whole entry, looked up): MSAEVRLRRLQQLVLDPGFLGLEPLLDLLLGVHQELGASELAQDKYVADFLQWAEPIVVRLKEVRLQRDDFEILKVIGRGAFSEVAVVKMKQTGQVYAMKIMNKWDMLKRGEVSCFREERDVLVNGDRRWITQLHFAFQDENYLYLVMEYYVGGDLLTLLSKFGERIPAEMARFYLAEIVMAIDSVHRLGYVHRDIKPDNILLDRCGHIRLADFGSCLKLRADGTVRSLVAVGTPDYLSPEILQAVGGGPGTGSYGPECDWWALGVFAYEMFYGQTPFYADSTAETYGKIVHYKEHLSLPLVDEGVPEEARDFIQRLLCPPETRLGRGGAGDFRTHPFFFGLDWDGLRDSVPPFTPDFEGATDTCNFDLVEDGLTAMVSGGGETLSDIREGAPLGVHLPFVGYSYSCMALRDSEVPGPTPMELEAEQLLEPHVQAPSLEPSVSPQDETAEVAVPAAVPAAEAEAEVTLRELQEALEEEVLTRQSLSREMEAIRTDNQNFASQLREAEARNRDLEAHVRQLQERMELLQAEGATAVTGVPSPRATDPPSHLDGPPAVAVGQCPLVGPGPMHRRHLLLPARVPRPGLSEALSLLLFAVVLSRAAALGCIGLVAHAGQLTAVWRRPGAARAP
- protocol description: radiometric filter-binding kinase assay, Kinase HotSpot
- measurement setup: compound 0.5 µM; ATP 10 µM
property measured: residual activity
Be sure to follow the number with its unit.

May I ask what residual activity has been recorded for N#Cc1c(NC(=O)c2cccc3ccccc23)sc2c1CCCC2 ?
109%

May I ask what residual activity has been recorded for COc1cccc(-c2cc(=O)c3ccccc3o2)c1N ?
97.1%

May I ask what residual activity has been recorded for O=S(=O)(NCCNC/C=C/c1ccc(Br)cc1)c1cccc2cnccc12 ?
96.6%

May I ask what residual activity has been recorded for c1ccc(-c2cnc(Nc3ccc(OCCN4CCCC4)cc3)s2)cc1 ?
110%

May I ask what residual activity has been recorded for COc1cc2c(N3CCN(C(=O)Nc4ccc(OC(C)C)cc4)CC3)ncnc2cc1OCCCN1CCCCC1 ?
101%

Parameters: items (list). Returns: residual activity for each item.
1. O=c1c(-c2ccc(F)cc2)c(-c2ccncc2)[nH]n1-c1ccc(Cl)cc1
2. O=C1NC(=O)c2cc(Nc3ccc(F)cc3)c(Nc3ccc(F)cc3)cc21
3. FC(F)(F)c1ccc(/C=C/c2nc(COc3ccc(CCCCn4ccnn4)cc3)co2)cc1
4. Cn1cc(/C=C2\C(=O)Nc3ccc(S(N)(=O)=O)cc32)c2ccccc21
5. Cc1cc(Nc2nc(-c3ccccc3)nc3ccccc23)n[nH]1

1: 87.6%; 2: 108%; 3: 101%; 4: 106%; 5: 100%

Parameters: items (list). Returns: residual activity for each item.
1. O=c1cc(N2CCOCC2)oc2c(-c3ccccc3)cccc12
2. CN[C@@H]1C[C@H]2O[C@@](C)([C@@H]1OC)n1c3ccccc3c3c4c(c5c6ccccc6n2c5c31)C(=O)NC4
3. O=c1c2ccccc2[nH]c(=S)n1CCN1CCC(=C(c2ccc(F)cc2)c2ccc(F)cc2)CC1
4. COc1cc2c(Nc3ccc(Br)cc3F)ncnc2cc1OCC1CCN(C)CC1
5. N/C(=N\N=C/c1ccc(-c2cccc([N+](=O)[O-])c2)o1)N[N+](=O)[O-]

1: 99.4%; 2: 4.83%; 3: 108%; 4: 94.6%; 5: 102%

Cited source for all entries: the kinase profiling compilation of Christmann-Franck et al. (2016)
